Sourced from the Human Domainome abundance scans (Beltran et al. 2025)

B1: Segment polarity protein dishevelled homolog DVL-3, residues 2 to 81; numbered along this chain, Q92997 (parent)
chain: GETKIIYHLDGQETPYLVKLPLPAERVTLADFKGVLQRPSYKFFFKSMDDDFGVVKEEISDDNAKLPCFNGRVVSWLVSA

- Variants of: B1
- ASSAY_PROCEDURE: abundance fitness (aPCA) (normalised: wild type 0, dead -1); higher = more abundant; growth selection in yeast, the domain comes from the species named
- CONDITION_INFO: Homo sapiens
Item-by-item account of abundance fitness
Note: the reply should be a number with no unit written.

{"VARIANT_SPEC": "S79K", "abundance fitness": -0.204}
{"VARIANT_SPEC": "V55M", "abundance fitness": -0.024}
{"VARIANT_SPEC": "S75P", "abundance fitness": -0.59}
{"VARIANT_SPEC": "L29N", "abundance fitness": -0.865}

Record request: abundance fitness value, item K33Q
-0.94

Record request: abundance fitness value, item Q37A
-0.1

Record request: abundance fitness value, item E57R
0.44

Record request: abundance fitness value, item G53N
0.563

Record request: abundance fitness value, item K65E
-0.821

Record request: abundance fitness value, item V78K
-0.105
